Organism: Homo sapiens
test-method-notes: Selectivity index, ratio of Ki for human recombinant MAOA to Ki for human recombinant MAOB
quantity: Ratio Ki

Answered cases to consult:
• N#Cc1ccc(Sc2ccc(Br)cc2)cc1C#N = 147
• N#Cc1ccc(SC2CCCCC2)cc1 = 1.3
• N#Cc1ccc(Sc2ccccc2)cc1C#N = 1
• N#Cc1ccc(SCc2ccc(F)cc2)cc1 = 75
• N#Cc1ccc(SCc2ccc(Br)cc2)cc1 = 163
• N#Cc1ccc(SC2CCCCC2)cc1C#N = 16.3
• N#Cc1ccc(SCCc2ccccc2)cc1 = 18
• N#Cc1ccc(Sc2ccc(Br)cc2)cc1 = 8.2
• N#Cc1ccc(SCc2ccc(Cl)cc2)cc1 = 23
• N#Cc1ccc(Sc2ccc(Cl)cc2)cc1C#N = 59.6

(P) COc1ccc(CSc2ccc(C#N)c(C#N)c2)cc1
(Q) CC(C)CCSc1ccc(C#N)c(C#N)c1
Would you let me know which has the greater Ratio Ki value, P or Q ? Returns: label corresponding to the selected item.
P
